# Tested on: E. coli MC4100 imp4213 (imp) strain
# Experiment: MIC of lead compounds on the imp strain, microdilution method in 96-well plates
# Assay type: cell-based
# Measurement context: Escherichia coli
Where a name gives a salt, the structure may show the parent alone.
In plain terms, low MIC, meaning strictly below 6 µM, gives criterion met, and everything else gives criterion not met.

# Molecule, Experimental target, Category
data = [
    ("Oc1ccc(Cl)cc1Cc1cc(Cl)ccc1O", "E. coli MC4100 imp4213 (imp) strain", "criterion not met"),
    ("Cc1nc2ccccc2n1Cc1ccc(Cl)cc1", "E. coli MC4100 imp4213 (imp) strain", "criterion not met"),
    ("CCCCCc1ccc(C=CC(=O)Nc2cc(Cl)ccc2C(=O)O)cc1", "E. coli MC4100 imp4213 (imp) strain", "criterion met"),
    ("O=S(=O)(NCCNCC=Cc1ccc(Br)cc1)c1cccc2cnccc12 [H 89 dihydrochloride]", "E. coli MC4100 imp4213 (imp) strain", "criterion not met"),
    ("O=c1[nH]c(=O)n([C@H]2C[C@H](O)[C@@H](CO)O2)cc1F", "E. coli MC4100 imp4213 (imp) strain", "criterion not met"),
]

Problem: Given the entry CC(=O)[C@]1(O)Cc2c(O)c3c(c(O)c2[C@@H](O[C@H]2C[C@H](N)[C@H](O)[C@H](C)O2)C1)C(=O)c1ccccc1C3=O , would its reported MIC be below 6 µM?
Solution: criterion not met

Problem: is_below(MIC, 6 µM) for CN(C)CCCN1c2ccccc2Sc2ccc(C(F)(F)F)cc21 ?
Solution: criterion not met

Problem: In the record for CCCCC(CC)CNC(=N)NC(=N)NCCCCCCNC(=N)NC(=N)NCC(CC)CCCC (stereo not shown) [Alexidine hydrochloride] , is MIC less than 6 µM?
Solution: criterion not met

Problem: Is MIC strictly under 6 µM for the entry CC[n+]1c(-c2ccccc2)c2cc(N)ccc2c2ccc(N)cc21 [Homidium bromide] ?
Solution: criterion not met

Problem: Could you please tell me whether MIC recorded for O=C(NC[C@H]1CN(c2ccc(N3CCOCC3=O)cc2)C(=O)O1)c1ccc(Cl)s1 is less than 6 µM?
Solution: criterion met

----------
# Test system: E. coli MC4100 imp4213 (imp) strain
# Experiment: MIC of lead compounds on the imp strain, microdilution method in 96-well plates
# Assay type: cell-based
# Measurement context: Escherichia coli
# Method: With the aim of finding antibiotics with novel MOAs, an unbiased whole-cell screening approach was applied. […] From the 186 unique hits, 32 lead compounds were selected that either had not been identified as antibiotics or had unknown or ambiguous MOAs for further investigation. To understand the potency of these compounds, their minimum inhibitory concentration (MIC) was measured on the imp strain using the microdilution method in 96-well plates.
Where a name gives a salt, the structure may show the parent alone.
MIC for assorted molecules
// return the numeric value with its unit appended

Answered examples (3):
# Molecule, MIC
measured = [
    ("CC(C)c1ccc(Cn2ccc3c4c(N)nc(NC5CC5)nc4ccc32)cc1 [SCH 79797, dihydrochloride]", "25 µM"),
    ("CC[n+]1c(C=CC=C2N(C)c3ccccc3C2(C)C)sc2ccccc21 [AC-93253 iodide]", "6.25 µM"),
    ("COc1cccc(C2(O)CCCCC2CN(C)C)c1 (stereo not drawn) [Tramadol hydrochloride]", "6.25 µM"),
]

Problem: Quick check: MIC of O=C1Nc2ccc(I)cc2C1=Cc1cc(Br)c(O)c(Br)c1 ?
Solution: 6.25 µM

Problem: Field request: MIC | item: Clc1ccc(C(c2ccc(Cl)cc2)n2cc[n+](CC(OCc3ccc(Cl)cc3Cl)c3ccc(Cl)cc3Cl)c2)cc1.[Cl-] (stereo not drawn) [Calmidazolium chloride]
Solution: 3.12 µM

Problem: Entry O=[N+]([O-])C(Br)(CO)CO has what MIC?
Solution: 25 µM
